target: recombinant human hepatic type GK (GST-hGK2) (Homo sapiens, UniProt P35557); construct: made in house; host or cells: Escherichia coli BL21; assay: Measurement of glucokinase (GK) activation; assay type: biochemical; settings: 10 min; test compound final concentration 10 μM; 5 mM glucose; 27° C.; increase of absorbance at 340 nm during first 10 minutes vs DMSO; read-out: GK activation (%)
Sequence (P35557 1-466 isoform P35557-2): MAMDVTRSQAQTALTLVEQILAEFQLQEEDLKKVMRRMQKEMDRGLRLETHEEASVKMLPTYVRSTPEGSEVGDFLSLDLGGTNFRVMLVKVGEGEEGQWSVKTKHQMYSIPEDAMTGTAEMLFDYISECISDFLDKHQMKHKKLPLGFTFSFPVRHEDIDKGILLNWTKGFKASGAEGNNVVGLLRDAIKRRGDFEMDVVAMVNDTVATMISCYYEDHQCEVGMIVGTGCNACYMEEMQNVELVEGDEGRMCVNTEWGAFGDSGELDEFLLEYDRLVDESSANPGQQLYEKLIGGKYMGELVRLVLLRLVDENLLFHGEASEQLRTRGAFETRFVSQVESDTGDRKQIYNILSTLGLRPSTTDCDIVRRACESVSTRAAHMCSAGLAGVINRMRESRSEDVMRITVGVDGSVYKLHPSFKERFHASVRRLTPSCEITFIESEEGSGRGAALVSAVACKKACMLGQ
Test Readout: activation at 10 µM (%)

[I] CC(=O)c1cnc(NC(=O)/C(=C/[C@H]2CCC(=O)C2)c2ccc(S(=O)(=O)C3CC3)c(C3CC3)c2)s1
[II] O=C1CC[C@H](C[C@@H](C(=O)Nc2cnc(OCCO)cn2)c2ccc(S(=O)(=O)C3CC3)c(C3CC3)c2)C1
// task: argmin of activation at 10 µM over [ I , II ] Please indicate the selected item by its label.
I
(I: 286%, II: 433%)

[A] Cc1cnc(NC(=O)/C(=C/[C@H]2CCC(=O)C2)c2ccc(S(=O)(=O)C3CC3)c(C3CC3)c2)cn1
[B] Cc1ccc(NC(=O)[C@H](C[C@H]2CCC(O)C2)c2ccc(S(=O)(=O)C3CC3)c(C3CC3)c2)nc1 (some centres unmarked)
// task: argmin of activation at 10 µM over [ A , B ] Please indicate the selected item by its label.
B
